Would you mind telling me the reported apparent KD of MS2 coat protein of each entry?
- System: MS2 coat protein
- experiment-summary: apparent KD of MS2 coat protein; designed switch direction (-1 OFF switch, 1 ON switch): 1; higher = weaker reporter binding
- test-parameters: Eterna round: R95; input ligand: FMN 200 uM
Give bare numbers, in nM.

1) UUUAGGAACGGGCAGGAUAUGUAUUAAAAUACAUGAGGAUCACCCAUGUGCGGGUAUAACACCCGACAGAAGGGCCAAUCGUUCC [Laonerce - 9] (puzzle: Same State 2); 22.7
2) AGUCCAGCCUGAGCUGGACAAAAGCAUGUACAUGAGGAUCACCCAUGUCAUGUACAAGCUUUUUGCUCGUCUUGAAA [Zipper 46 - 9] (puzzle: Sensor for hsa-mir-208a); 737
3) UACAAUCUAUCUGAGGAUAUCAUGAAAUAAACAUGAGGAUCACCCAUGUGCAGGAAAACUGCAUAUGAGAAGGCAGAUAGAUUGU [salish99_ss2_r3_059] (puzzle: Same State 2); 41.1
4) GCAUUACAUGAGGAUCACCCAUGUCUCUAAAGUCGAGGAUAUGGGCAGGUUAUAUCCGAACCAGAAGGCGAAUUGC [SS1 Teenbexe 10] (puzzle: Same State 1); 138
5) AAUUAUUCACAUGAGGAUCACCCAUGUGAUAUUAUUAUUACAAGCUUUUUGCUCGUCUUGUUCCUCAGUGAAUAAUU [Default title] (puzzle: Sensor for hsa-mir-208a version 2); 18.3
6) CGUCCGGCCUGAGCUGGACGGUAGCAUGUACAUGAGGAUCACCCAUGUUCAUGUGCAGGCUUUUUGCUCGUCUUGUG [salish99_mir208a_modof_jandersonlee_003] (puzzle: Sensor for hsa-mir-208a); 42.3
7) ACACCACAUGAGGAUCACCCAUGUGUCAAUAACACAGGAUAUCACCCGGAAUACACCGGGUGAGAAGGGUGACCGA [Gesois] (puzzle: Same State 1); 158
8) AUCUCUGUGCCGCAGGAUAUACCAACGGCUACAUGAGGAUCACCCAUGUCAUACCGUCGAAAAUGGUAGAAGGGUGUGCACGAGC [Leesmala] (puzzle: Same State 2); 16.4
9) AUAAGUUCGAUGCUCGUCUCUCCGUACAAACAUGAGGAUCACCCAUGUGAUUGAGCAGUAGCCCAAUCAGUAUGGCC [Tileus] (puzzle: Sensor for hsa-mir-208a); 45.1
10) UCUUGGUUUUUGCUCGUUUUUUGUGUUGAACAUGAGGAUCACCCAUGUAUUGUACGGUCCGGUUUAGUGAUGAUCCA [JMF 76] (puzzle: Sensor for hsa-mir-208a); 188

Switching to the query record.
Entry GGUCCAGCCUGAGCUGGACAAAAGCAUGUACAUGAGGAUCACCCAUGUUCAUGUACAAGCUUUUUGCUCGUCUUAAG [salish99_208a_r3_037] (puzzle: Sensor for hsa-mir-208a) — recorded apparent KD of MS2 coat protein = 719
